Biological target: EGFR L858R/T790M/C797S (BaF3-LTC cells) (Homo sapiens, UniProt P00533, C797S/L858R/T790M)
Construct: expressed in transfected cells; host or cells: BaF3
Sequence (P00533 25-1210 T790M/C797S/L858R): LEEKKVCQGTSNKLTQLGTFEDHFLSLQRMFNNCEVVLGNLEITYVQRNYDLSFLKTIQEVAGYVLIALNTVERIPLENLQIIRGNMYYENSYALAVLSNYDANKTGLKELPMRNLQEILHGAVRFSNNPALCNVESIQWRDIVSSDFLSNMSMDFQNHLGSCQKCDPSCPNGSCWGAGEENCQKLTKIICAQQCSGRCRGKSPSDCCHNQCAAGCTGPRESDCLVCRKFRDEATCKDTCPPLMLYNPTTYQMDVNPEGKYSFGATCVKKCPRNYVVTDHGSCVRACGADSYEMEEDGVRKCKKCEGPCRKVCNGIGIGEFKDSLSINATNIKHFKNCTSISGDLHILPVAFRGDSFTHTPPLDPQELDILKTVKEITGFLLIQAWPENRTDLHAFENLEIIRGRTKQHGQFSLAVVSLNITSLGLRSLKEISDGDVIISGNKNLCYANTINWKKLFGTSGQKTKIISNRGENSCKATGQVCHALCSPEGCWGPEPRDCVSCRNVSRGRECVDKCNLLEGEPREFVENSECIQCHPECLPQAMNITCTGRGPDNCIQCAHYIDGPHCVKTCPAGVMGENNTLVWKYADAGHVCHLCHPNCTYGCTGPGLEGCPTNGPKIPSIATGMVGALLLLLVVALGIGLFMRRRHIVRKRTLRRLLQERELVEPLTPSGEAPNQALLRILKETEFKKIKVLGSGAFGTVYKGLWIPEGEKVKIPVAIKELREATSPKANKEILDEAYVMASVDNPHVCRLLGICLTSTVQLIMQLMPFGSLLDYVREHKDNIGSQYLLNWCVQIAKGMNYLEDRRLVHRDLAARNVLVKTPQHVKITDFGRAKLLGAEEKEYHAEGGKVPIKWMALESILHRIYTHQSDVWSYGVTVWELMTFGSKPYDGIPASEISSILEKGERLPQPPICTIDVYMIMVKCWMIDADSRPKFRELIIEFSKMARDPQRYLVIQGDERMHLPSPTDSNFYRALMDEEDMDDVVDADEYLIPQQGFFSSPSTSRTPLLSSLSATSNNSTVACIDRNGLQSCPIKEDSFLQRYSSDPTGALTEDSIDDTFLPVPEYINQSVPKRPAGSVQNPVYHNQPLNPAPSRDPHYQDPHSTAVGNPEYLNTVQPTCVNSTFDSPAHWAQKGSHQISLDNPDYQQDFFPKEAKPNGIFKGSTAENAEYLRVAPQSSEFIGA
Experiment: EGFR degradation HTRF assay, BaF3-LTC cells
Type: cell-based
Conditions: BaF3-LTC cells; maximum percentage of inhibition (degradation); read-out: Dmax (%) BaF3-LTC
Recorded Metric: Dmax (%)

>>> experimental_result("CCOc1cc(N2CCC(N3CCN(CCc4cc5oc(=O)n(C6CCC(=O)NC6=O)c5cc4F)CC3)CC2)c(CC)cc1Nc1ncc(Br)c(Nc2cc(F)c3nc(CC)ccc3c2P(C)(C)=O)n1 (stereo not drawn) [Example 498]")
91.4
>>> experimental_result("CCc1ccc2c(P(C)(C)=O)c(Nc3nc(Nc4cc(CC)c(N5CCC(N6CCN(CCc7c(F)ccc8c7oc(=O)n8C7CCC(=O)NC7=O)CC6)CC5)cc4OC)ncc3Br)ccc2n1 (stereo not drawn) [Example 444]")
79.4
>>> experimental_result("CCc1cc(Nc2ncc(Br)c(Nc3ccc4nc(NC(=O)C5CC5)ccc4c3P(C)(C)=O)n2)c(OC)cc1N1CCC(N2CCN(C(=O)[C@@H]3CCN(c4cc(F)c([C@H]5CCC(=O)NC5=O)c(F)c4)C3)CC2)CC1 [Example 587]")
89.2

---

Molecular target: EGFR (HCC827 cells) (Homo sapiens, UniProt P00533, DEL746-750)
Construct: endogenous in cells; host or cells: HCC827
Sequence (P00533 with tags, fused parts or gaps DEL746-750): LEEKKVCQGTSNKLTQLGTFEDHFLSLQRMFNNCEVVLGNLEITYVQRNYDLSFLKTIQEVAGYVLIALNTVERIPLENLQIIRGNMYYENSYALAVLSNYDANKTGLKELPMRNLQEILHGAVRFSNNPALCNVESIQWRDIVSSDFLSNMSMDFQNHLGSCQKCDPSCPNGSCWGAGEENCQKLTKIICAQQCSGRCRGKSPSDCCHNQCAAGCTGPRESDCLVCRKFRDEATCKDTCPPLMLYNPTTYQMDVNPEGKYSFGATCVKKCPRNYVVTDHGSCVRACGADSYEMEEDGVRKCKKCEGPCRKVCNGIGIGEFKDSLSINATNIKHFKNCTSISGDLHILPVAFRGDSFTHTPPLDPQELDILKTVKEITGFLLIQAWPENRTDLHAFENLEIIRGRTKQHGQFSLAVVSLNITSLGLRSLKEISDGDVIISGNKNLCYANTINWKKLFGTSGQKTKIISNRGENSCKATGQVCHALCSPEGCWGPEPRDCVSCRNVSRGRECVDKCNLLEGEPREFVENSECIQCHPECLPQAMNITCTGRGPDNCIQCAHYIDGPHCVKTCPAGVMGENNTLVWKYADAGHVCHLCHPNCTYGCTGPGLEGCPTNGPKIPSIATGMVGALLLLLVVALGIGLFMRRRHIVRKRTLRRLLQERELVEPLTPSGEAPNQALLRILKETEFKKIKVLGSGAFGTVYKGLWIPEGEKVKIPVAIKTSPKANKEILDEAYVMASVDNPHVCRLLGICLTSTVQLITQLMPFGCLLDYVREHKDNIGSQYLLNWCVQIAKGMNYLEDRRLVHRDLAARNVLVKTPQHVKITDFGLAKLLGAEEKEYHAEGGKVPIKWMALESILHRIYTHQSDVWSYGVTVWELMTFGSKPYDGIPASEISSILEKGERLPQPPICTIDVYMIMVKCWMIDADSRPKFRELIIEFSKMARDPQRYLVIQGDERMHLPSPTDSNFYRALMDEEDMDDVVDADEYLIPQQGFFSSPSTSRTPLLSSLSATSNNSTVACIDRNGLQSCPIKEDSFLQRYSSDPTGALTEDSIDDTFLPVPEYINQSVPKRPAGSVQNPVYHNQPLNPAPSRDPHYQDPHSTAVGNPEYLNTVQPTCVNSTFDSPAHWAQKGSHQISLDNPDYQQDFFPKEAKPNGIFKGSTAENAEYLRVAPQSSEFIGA
Assay: EGFR degradation HTRF assay, HCC827 cells
Assay type: cell-based
Conditions: HCC827, 16h treatment, maximum percentage of degradation
Recorded Metric: Dmax (%)

>>> experimental_result("COc1cc(N2CCN(C3CN(C(=O)c4cnc(C(=O)Nc5ccc(C6CCC(=O)NC6=O)cc5)cn4)C3)CC2)c(C)cc1Nc1ncc(Br)c(Nc2ccc3nccnc3c2P(C)(C)=O)n1 (stereo not shown)")
76.9
>>> experimental_result("CCc1cc(Nc2ncc(Br)c(Nc3ccc4nccnc4c3P(C)(C)=O)n2)c(OC)cc1N1CCC(N2CCN(C[C@H]3CCN(c4ccc(C5CCC(=O)NC5=O)cc4)C3)CC2)CC1 (stereo partly shown)")
77.7
>>> experimental_result("COc1cc(N2CCN(CC3CCN(c4ccc(N5CCC(=O)NC5=O)c(F)c4)CC3)CC2)c(C)cc1Nc1ncc(Br)c(Nc2ccc3nccnc3c2P(C)(C)=O)n1")
67
>>> experimental_result("COc1cc(N2CCN(CCCOc3ccc(OC4CCC(=O)NC4=O)cc3)CC2)c(C)cc1Nc1ncc(Br)c(Nc2ccc3nccnc3c2P(C)(C)=O)n1 (stereo not shown)")
76.8
>>> experimental_result("COc1cc(N2CCC(N3CCN(CCc4ccc(C5CCC(=O)NC5=O)cc4)CC3)CC2)ccc1Nc1ncc(Cl)c(Nc2ccccc2N(C)S(C)(=O)=O)n1 (stereo not shown)")
85.3
>>> experimental_result("COc1cc(N2CCC(N(C)CCc3ccc(C4CCC(=O)NC4=O)cn3)CC2)c(C)cc1Nc1ncc(Br)c(Nc2ccc3nccnc3c2P(C)(C)=O)n1 (stereo not shown)")
85.2
>>> experimental_result("COc1cc(N2CCN(CC3CCN(c4ccc(C5CCC(=O)NC5=O)cc4)CC3)CC2)c(C)cc1Nc1ncc(Br)c(Nc2ccc3nccnc3c2P(C)(C)=O)n1 (stereo not shown)")
68.7
>>> experimental_result("CCc1cc(Nc2ncc(Br)c(Nc3ccc4nccnc4c3P(C)(C)=O)n2)c(OC)cc1N1CCC(N2CCN(CCC3CN(c4ccc5c(c4)C(=O)N(C4CCC(=O)NC4=O)C5=O)C3)CC2)CC1 (stereo not shown)")
78.5
>>> experimental_result("CCc1cc(Nc2ncc(Br)c(Nc3ccc4nccnc4c3P(C)(C)=O)n2)c(OC)cc1N1CCC(N2CCN(C(=O)C3CN(c4ccc5c(c4)C(=O)N(C4CCC(=O)NC4=O)C5=O)C3)CC2)CC1 (stereo not shown)")
75.7
>>> experimental_result("COc1cc(N2CCN(CC3CCN(c4ccc(N5CCC(=O)NC5=O)cc4)CC3)CC2)ccc1Nc1ncc(Cl)c(Nc2ccccc2P(C)(C)=O)n1")
83.4
>>> experimental_result("COc1cc(N2CCC(N(C)CC3CCN(c4ccc(N5CCC(=O)NC5=O)cc4F)CC3)CC2)c(C)cc1Nc1ncc(Br)c(Nc2ccc3nccnc3c2P(C)(C)=O)n1")
74
>>> experimental_result("COc1cc(N2CCC(N3CCN(CCCOc4ccc(OC5CCC(=O)NC5=O)cc4)CC3)CC2)ccc1Nc1ncc(Cl)c(Nc2ccccc2N(C)S(C)(=O)=O)n1 (stereo not shown)")
71.4
>>> experimental_result("CP(C)(=O)c1c(Nc2nc(Nc3ccc(N4CCN(C5CN(CC6CN(c7ccc8c(c7)C(=O)N(C7CCC(=O)NC7=O)C8=O)C6)C5)CC4)c(F)c3)ncc2Br)ccc2nccnc12 (stereo not shown)")
81

---

Biological target: EGFR (HCC827 cells) (Homo sapiens, UniProt P00533, DEL746-750)
Construct: endogenous in cells; host or cells: HCC827
Experiment: EGFR degradation HTRF assay, HCC827 cells
Format: cell-based
Conditions: HCC827, 16h treatment
Recorded Metric: DC50 (nM)

>>> experimental_result("COc1cc(N2CCC(N3CCN(CCC4CCN(c5ccc(N6CCC(=O)NC6=O)c(F)c5)CC4)CC3)CC2)ccc1Nc1ncc(Cl)c(Nc2ccccc2N(C)S(C)(=O)=O)n1 [Example 125]")
103

I = COc1cc(N2CCC(N3CCN(C(=O)C4CCN(CC5CCN(c6ccc7c(c6)C(=O)N(C6CCC(=O)NC6=O)C7=O)CC5)CC4)CC3)CC2)ccc1Nc1ncc(Cl)c(Nc2ccccc2N(C)S(C)(=O)=O)n1 (stereo not drawn) [Example 129]
II = COc1cc(N2CCN(CC3CCN(c4ccc(N5CCC(=O)NC5=O)cc4)CC3)CC2)c(C)cc1Nc1ncc(Br)c(Nc2ccc3nccnc3c2P(C)(C)=O)n1 [Example 95]
Query block: Hey, between I and II which has a smaller measured DC50? Which one? Tell me its label.
Result block: I
(I: 11.1 nM, II: 147 nM)
